Where these numbers come from: paper PMC6478669

# target-desc: AubR (uncultured bacterium)
# Construct: constitutively expressed from Receiver plasmid (pSB1A3) in E. coli BL21 with hybrid pAub promoter-GFP reporter; acts as dimer
# Sequence (K0J3R4 1-267): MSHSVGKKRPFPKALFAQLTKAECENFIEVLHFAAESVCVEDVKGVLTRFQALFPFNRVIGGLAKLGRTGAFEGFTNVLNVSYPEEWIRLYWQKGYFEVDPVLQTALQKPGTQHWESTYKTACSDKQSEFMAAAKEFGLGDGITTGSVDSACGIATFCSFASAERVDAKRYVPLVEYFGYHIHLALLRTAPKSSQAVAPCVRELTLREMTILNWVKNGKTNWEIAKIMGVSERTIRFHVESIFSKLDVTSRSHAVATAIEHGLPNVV
# experiment: GFP reporter induction, plate reader
# assay-conditions: read-out: Kmapprox
Recorded pEC50 by entry
// field semantics: pEC50 = negative decimal log of concentration (mol/L)

CCCCCCCCCCCC(=O)N[C@H]1CCOC1=O    8.30

Here's the next entry for you.
Query: What value of pEC50 has been reported for the following molecule? CCCCCCCCCC(=O)CC(=O)N[C@H]1CCOC1=O
Response: 7.00
